- Test system: LP-1;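 also: growth inhibition of human LP-1 cells, with the read-out taken from a cell viability assay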
- assay_notes: cells
- Assay type: functional, cell-based
- condition_set: Homo sapiens
- Description: SANGER: Inhibition of human LP-1 cell growth in a cell viability assay.
pIC50: −log10 of the molar value.
Measured pIC50, listed per entry for reference.

Example molecules with recorded pIC50:
>  <molecule>
CCC1=C[C@@H]2CN(C1)Cc1c([nH]c3ccccc13)[C@@](C(=O)OC)(c1cc3c(cc1OC)N(C)[C@H]1[C@@](O)(C(=O)OC)[C@H](OC(C)=O)[C@]4(CC)C=CCN5CC[C@]31[C@@H]54)C2

>  <value_observed>
< 7.19

$$$$
>  <molecule>
C=C1C(=O)O[C@@H]2C3O[C@]3(C)CC/C=C(\C)CC[C@@H]12 (some centres undefined)

>  <value_observed>
< 5.30

$$$$
>  <molecule>
CNC(=O)c1cc(Oc2ccc(NC(=O)Nc3ccc(Cl)c(C(F)(F)F)c3)cc2)ccn1

>  <value_observed>
< 5.40

$$$$
>  <molecule>
Cc1cnc(-c2cnc(NCCNc3ccc(C#N)cn3)nc2-c2ccc(Cl)cc2Cl)[nH]1

>  <value_observed>
< 5.59

$$$$
>  <molecule>
C[C@]1(O)C[C@@H](c2nc(-c3ccc4ccc(-c5ccccc5)nc4c3)c3c(N)nccn32)C1

>  <value_observed>
5.65

$$$$

Lab book: pIC50 of Cc1cc([C@@H](C)Nc2ccccc2C(=O)O)c2nc(N3CCOCC3)cc(=O)n2c1 noted as < 5.29

Record summary for Cn1cncc1[C@@](N)(c1ccc(Cl)cc1)c1ccc2c(c1)c(-c1cccc(Cl)c1)cc(=O)n2C : reported pIC50 = < 4.80

// field: pIC50; key: COC(=O)CNC(=O)C(=O)OC ; value = 3.72

For reference, reported pIC50 for CC1=C2C[C@H]3[C@@H](CC=C4C[C@@H](O)CC[C@@]43C)[C@@H]2CC[C@]12O[C@@H]1C[C@H](C)CN[C@H]1[C@H]2C stands at < 4.80
